Overview of reported log10 of IC50 across a group of compounds:
Biological target: Protein deacetylase HDAC6 (Homo sapiens)
Sequence (Q9UBN7 whole entry): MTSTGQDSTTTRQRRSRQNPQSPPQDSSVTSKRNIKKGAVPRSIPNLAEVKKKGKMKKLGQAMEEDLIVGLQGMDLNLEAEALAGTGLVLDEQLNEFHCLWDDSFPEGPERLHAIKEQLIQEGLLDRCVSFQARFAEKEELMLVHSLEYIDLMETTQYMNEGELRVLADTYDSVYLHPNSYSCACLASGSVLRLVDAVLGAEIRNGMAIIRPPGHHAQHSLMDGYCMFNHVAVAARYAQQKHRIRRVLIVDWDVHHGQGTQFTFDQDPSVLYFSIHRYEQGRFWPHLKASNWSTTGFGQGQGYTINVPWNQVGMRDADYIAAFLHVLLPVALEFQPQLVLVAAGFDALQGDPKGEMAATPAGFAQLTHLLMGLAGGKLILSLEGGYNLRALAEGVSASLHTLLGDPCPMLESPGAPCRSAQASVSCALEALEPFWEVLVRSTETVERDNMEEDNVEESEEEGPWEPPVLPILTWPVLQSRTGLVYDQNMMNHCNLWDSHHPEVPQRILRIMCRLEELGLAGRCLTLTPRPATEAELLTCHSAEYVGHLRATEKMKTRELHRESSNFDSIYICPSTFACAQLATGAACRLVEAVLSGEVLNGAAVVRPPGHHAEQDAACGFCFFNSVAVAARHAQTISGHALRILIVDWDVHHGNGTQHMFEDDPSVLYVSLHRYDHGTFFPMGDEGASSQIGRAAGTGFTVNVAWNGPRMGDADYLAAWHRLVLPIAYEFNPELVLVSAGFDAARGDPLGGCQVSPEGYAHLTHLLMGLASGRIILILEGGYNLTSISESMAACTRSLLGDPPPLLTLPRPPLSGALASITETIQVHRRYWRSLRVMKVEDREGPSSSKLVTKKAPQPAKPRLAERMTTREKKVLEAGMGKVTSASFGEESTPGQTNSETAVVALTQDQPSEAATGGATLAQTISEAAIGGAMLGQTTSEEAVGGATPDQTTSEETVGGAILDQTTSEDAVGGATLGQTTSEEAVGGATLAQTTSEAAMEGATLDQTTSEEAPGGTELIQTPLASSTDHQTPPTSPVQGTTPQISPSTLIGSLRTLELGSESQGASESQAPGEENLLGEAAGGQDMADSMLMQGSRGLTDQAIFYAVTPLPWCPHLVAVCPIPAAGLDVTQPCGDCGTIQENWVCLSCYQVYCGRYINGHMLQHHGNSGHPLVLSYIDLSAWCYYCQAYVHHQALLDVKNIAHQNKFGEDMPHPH
Assay: Inhibition of recombinant HDAC6 expressed in HEK293 cells
OBSERVATION TYPE: log10 of IC50 (log10 of the value in nM)

[[record]]
cpd_smiles = "CCSC(=S)SCC(=O)c1cccc(C(=O)NCc2ccccc2)c1"
target = "Protein deacetylase HDAC6 (Homo sapiens)"
value = 2.29

[[record]]
cpd_smiles = "CCSC(=S)SCC(=O)c1cccc(S(=O)(=O)Nc2cccc(C(N)=O)c2)c1"
target = "Protein deacetylase HDAC6 (Homo sapiens)"
value = 2.26

[[record]]
cpd_smiles = "CCSC(=S)SCC(=O)c1ccc(S(=O)(=O)Nc2ccc(OC)cc2)cc1"
target = "Protein deacetylase HDAC6 (Homo sapiens)"
value = 2.39

[[record]]
cpd_smiles = "CCSC(=S)SCC(=O)c1cccc(NS(=O)(=O)c2ccc(Cl)cc2)c1"
target = "Protein deacetylase HDAC6 (Homo sapiens)"
value = 3.10

[[record]]
cpd_smiles = "CCSC(=S)SCC(=O)c1ccc(C)cc1"
target = "Protein deacetylase HDAC6 (Homo sapiens)"
value = 3.10

[[record]]
cpd_smiles = "CCSC(=S)SCC(=O)c1ccc(CC(=O)NCc2ccccc2)s1"
target = "Protein deacetylase HDAC6 (Homo sapiens)"
value = 2.40

[[record]]
cpd_smiles = "CCSC(=S)SCC(=O)c1ccc(-c2ccc(N)cn2)s1"
target = "Protein deacetylase HDAC6 (Homo sapiens)"
value = 1.63

[[record]]
cpd_smiles = "CCSC(=S)SCC(=O)c1ccc(CC(=O)NCCOc2ccccc2)s1"
target = "Protein deacetylase HDAC6 (Homo sapiens)"
value = 2.31

[[record]]
cpd_smiles = "CCSC(=S)SCC(=O)c1cccc(NC(C)=O)c1"
target = "Protein deacetylase HDAC6 (Homo sapiens)"
value = 2.52

[[record]]
cpd_smiles = "CCCC(=S)SCC(=O)c1ccc(OC)cc1"
target = "Protein deacetylase HDAC6 (Homo sapiens)"
value = 2.04

[[record]]
cpd_smiles = "CCSC(=S)SCC(=O)c1ccc(CC(=O)NCc2ccc(OC)cc2)s1"
target = "Protein deacetylase HDAC6 (Homo sapiens)"
value = 2.24

